- TEST SYSTEM: T1, human TL1A (hTL1A) antigen (human, UniProt O95150 58-251, limits assumed)
- T1 construct: also called TNFSF15
- T1 sequence (looked up): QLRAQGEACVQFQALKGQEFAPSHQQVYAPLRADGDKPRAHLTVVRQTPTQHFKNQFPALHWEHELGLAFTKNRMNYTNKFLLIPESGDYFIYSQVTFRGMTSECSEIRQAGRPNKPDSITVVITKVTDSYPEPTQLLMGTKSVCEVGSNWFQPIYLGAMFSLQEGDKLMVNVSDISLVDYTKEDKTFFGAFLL
- TEST DETAILS: SPR, affinity ranking, clone as ligand

BINDER | kon
AS12823 (antibody, V domains shown, Humanized 5C3D11 clone from a phage display library; also called 14) VH: QVQLVQSGAEVKKPGASVKLSCKASGFDICDTYMHWVRQRPGQGLEWIGRIDPASGHTKYDPKFQVRATMTTDTSTSTVYLELSSLRSEDTAVYYCARSGGLPDVWGQGTTVTVSS VL: EIVLTQSPGTLSLSPGERATMSCRASSSVSYMYWYQQKPGQAPRPWIYATSNLASGIPDRFSGSGSGTDFTLTISRVEPEDFAVYYCQQWSGNPRTFGGGTKLEIK | 864000 M⁻¹ s⁻¹
AS12816 (antibody, V domains shown, Humanized 5C3D11 clone from a phage display library) VH: QVQLVQSGAEVKKPGASVKVSCKASGFDICDTYMHWVKQRPGQGLEWIGRIDPASGHTKYDPKFQVRATITRDTSTSTAYLELSSLRSEDTAVYYCSRSGGLPDVWGQGTTVTVSS VL: EIVLTQSPGTLSASPGERVTLSCRASSSVSYMYWYQQKPGQAPRPWIYATSNLASGVPDRFSGSGSGTDFTLTISRLEPEDFAVYYCQQWSGNPRTFGGGTKLEIK | 763000 M⁻¹ s⁻¹
AS12819 (antibody, V domains shown, Humanized 5C3D11 clone from a phage display library; also called 10) VH: QVQLVQSGAEVVKPGASVKLSCKASGFDICDTYMHWVRQRPGQGLEWMGRIDPASGHTKYDPKFQVRVTMTTDTSTSTVYLELSSLRSEDTAVYYCARSGGLPDVWGQGTTVTVSS VL: EIVLTQSPGTLSLSPGERVTMSCRASSSVSYMYWYQQKPGQAPRPWIYATSNLASGVPDRFSGSGSGTDFTLTISRVEPEDFAVYYCQQWSGNPRTFGGGTKVEIK | 825000 M⁻¹ s⁻¹
AS12825 (antibody, V domains shown, Humanized 5C3D11 clone from a phage display library; also called 16) VH: QVQLVQSGAEVKKPGASVKVSCKASGFDICDTYMHWVKQAPGQGLEWMGRIDPASGHTKYDPKFQVRATMTTDTSTSTAYLELSSLRSEDTAVYYCSRSGGLPDVWGQGTTVTVSS VL: EIVLTQSPGTLSASPGERVTMSCRASSSVSYMYWYQQKPGQAPRLLIYATSNLASGVPDRFSGSGSGTDFTLTISRVEPEDFAVYYCQQWSGNPRTFGGGTKLEIK | 518000 M⁻¹ s⁻¹
